# Test system: K24384-001-R-PDC complex spheroid growth;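 also: percent of DMSO vehicle-treated spheroid viability set as 100%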
# assay: Anticancer human tumor K24384-001-R-PDC patient-derived pancreatic adenocarcinoma cell line growth inhibition [AhR]
# test_parameters: second compound 10 µM; first compound 1 µM; active compounds read low
Give viability, T/C for every item shown.
One number for each entry, in %.

# annotated cases, reported viability, T/C shown
COc1cc(Nc2ncc3c(n2)-c2ccc(Cl)cc2C(c2c(F)cccc2OC)=NC3)ccc1C(=O)O + CC(CO)NC(=O)c1cc(-c2ccc(Cl)cc2)nn(-c2cnn(C)c2)c1=O; 69.7
Nc1ncn(C2CC(O)C(CO)O2)c(=O)n1 (stereo unspecified) + Cc1cncc(-c2nc(NCCc3c[nH]c4ccccc34)c3ncn(C(C)C)c3n2)c1; 11.4
Nc1ccn(C2OC(CO)C(O)C2(F)F)c(=O)n1 (stereo unspecified) + CC(CO)NC(=O)c1cc(-c2ccc(Cl)cc2)nn(-c2cnn(C)c2)c1=O; 52.3
COc1ccc([C@@H](O)c2cc(-c3ncnc4cc(N5CCOCC5)ccc34)c(F)cc2Cl)nn1 + CC(CO)NC(=O)c1cc(-c2ccc(Cl)cc2)nn(-c2cnn(C)c2)c1=O; 52.1
CC1COCCN1c1cc(C2(S(C)(=N)=O)CC2)nc(-c2ccnc3[nH]ccc23)n1 (stereo unspecified) + Cc1cncc(-c2nc(NCCc3c[nH]c4ccccc34)c3ncn(C(C)C)c3n2)c1; 11.8

So, NS(=O)(=O)OCC1CC(n2ccc3c(NC4CCc5ccccc54)ncnc32)CC1O (stereo unspecified) + CC(CO)NC(=O)c1cc(-c2ccc(Cl)cc2)nn(-c2cnn(C)c2)c1=O ? Its viability, T/C was 44.7
